- assay.method.text: DPPH radical scavenging assay
- Assay type: biochemical
- condition.info: graphically determined; mean ± S.D., n = 3
As shown below, each of these molecules has a reported IC50 (DPPH radical scavenging) value.
Quote the value and follow it with the unit of measurement.

- smiles.data: "Cc1cc(N=Nc2ccc([O][Ni][O]c3ccc(N=Nc4ccc(Br)c(C)c4)cc3C=Nc3nc(-c4ccccc4)cs3)c(C=Nc3nc(-c4ccccc4)cs3)c2)ccc1Br"
  IC50 (DPPH radical scavenging): "40 ± 0.59 µg/mL"
- smiles.data: "Cc1cc(N=Nc2ccc([O][Co][O]c3ccc(N=Nc4ccc(Br)c(C)c4)cc3C=Nc3nc(-c4ccc(Cl)cc4)cs3)c(C=Nc3nc(-c4ccc(Cl)cc4)cs3)c2)ccc1Br"
  IC50 (DPPH radical scavenging): "38 ± 1.4 µg/mL"
- smiles.data: "Cc1cc(N=Nc2ccc([O][Cu][O]c3ccc(N=Nc4ccc(Br)c(C)c4)cc3C=Nc3nc(-c4ccccc4)cs3)c(C=Nc3nc(-c4ccccc4)cs3)c2)ccc1Br"
  IC50 (DPPH radical scavenging): "48 ± 0.89 µg/mL"

For the next question, use this molecule.
Challenge: Let me know recorded IC50 (DPPH radical scavenging) for "Cc1cc(N=Nc2ccc([O][Cu][O]c3ccc(N=Nc4ccc(Br)c(C)c4)cc3C=Nc3nc(-c4ccc(Cl)cc4)cs3)c(C=Nc3nc(-c4ccc(Cl)cc4)cs3)c2)ccc1Br" , thanks.
Response given: 46 ± 0.98 µg/mL

---

- Tested on: Escherichia coli (res)
- assay.method.text: Agar well diffusion, zone of inhibition
- Type: cell-based
- condition.info: mean ± S.D., n = 6; resistant to norfloxacin, ofloxacin, ampicillin, cefixime, nitrofurantoin
Reported values of zone of inhibition, E. coli (res) for individual entries
Quick reminder: number only, in mm, skip the unit.

Some solved cases for reference:
- smiles.data: "Cc1cc(N=Nc2ccc([O][Cu][O]c3ccc(N=Nc4ccc(Br)c(C)c4)cc3C=Nc3nc(-c4ccc(Cl)cc4)cs3)c(C=Nc3nc(-c4ccc(Cl)cc4)cs3)c2)ccc1Br"
  target.or.system: "Escherichia coli (res)"
  unit.string: "mm"
  zone of inhibition, E. coli (res): 14.83
- smiles.data: "Cc1cc(N=Nc2ccc(O)c(C=Nc3nc(-c4ccc(Cl)cc4)cs3)c2)ccc1Br"
  target.or.system: "Escherichia coli (res)"
  unit.string: "mm"
  zone of inhibition, E. coli (res): 15.33

Now let's try a different one.
Challenge: # return recorded zone of inhibition, E. coli (res) for input "Cc1cc(N=Nc2ccc(O)c(C=Nc3nc(-c4ccccc4)cs3)c2)ccc1Br"
Response given: 13.67

---

- assay.method.text: DPPH radical scavenging assay
- Type: biochemical
- condition.info: Conc. 10 μg/mL; mean ± S.D., n = 3
Measured % Inhibition (DPPH), listed per entry.
Write the answer as a number in %, unit excluded.

# count of solved cases: 2
- smiles.data: "Cc1cc(N=Nc2ccc([O][Cu][O]c3ccc(N=Nc4ccc(Br)c(C)c4)cc3C=Nc3nc(-c4ccc(Cl)cc4)cs3)c(C=Nc3nc(-c4ccc(Cl)cc4)cs3)c2)ccc1Br"
  unit.string: "%"
  % Inhibition (DPPH): 31.24
- smiles.data: "Cc1cc(N=Nc2ccc(O)c(C=Nc3nc(-c4ccccc4)cs3)c2)ccc1Br"
  unit.string: "%"
  % Inhibition (DPPH): 27.99

Let's switch to this compound now.
Challenge: Provide measured % Inhibition (DPPH) value, entry: "Cc1cc(N=Nc2ccc([O][Ni][O]c3ccc(N=Nc4ccc(Br)c(C)c4)cc3C=Nc3nc(-c4ccccc4)cs3)c(C=Nc3nc(-c4ccccc4)cs3)c2)ccc1Br"
Response given: 25.43

---

- assay.method.text: DPPH radical scavenging assay
- Type: biochemical
- condition.info: Conc. 50 μg/mL; mean ± S.D., n = 3
Think of 50% as a floor: if % Inhibition (DPPH) stands on it or above, it is satisfied; beneath it, not satisfied.

Study these solved cases before continuing.
- compound: "Cc1cc(N=Nc2ccc([O][Ni][O]c3ccc(N=Nc4ccc(Br)c(C)c4)cc3C=Nc3nc(-c4ccccc4)cs3)c(C=Nc3nc(-c4ccccc4)cs3)c2)ccc1Br [Compound 6c]"
  category: "satisfied"
- compound: "Cc1cc(C(C)(C)C)c(O)c(C(C)(C)C)c1 [BHT, butylated hydroxy toluene, reference compound]"
  category: "satisfied"
- compound: "Cc1cc(N=Nc2ccc([O][Co][O]c3ccc(N=Nc4ccc(Br)c(C)c4)cc3C=Nc3nc(-c4ccc(Cl)cc4)cs3)c(C=Nc3nc(-c4ccc(Cl)cc4)cs3)c2)ccc1Br [Compound 6d]"
  category: "satisfied"
- compound: "Cc1cc(N=Nc2ccc(O)c(C=O)c2)ccc1Br [Compound 4e]"
  category: "not satisfied"
- compound: "Cc1cc(N=Nc2ccc([O][Ni][O]c3ccc(N=Nc4ccc(Br)c(C)c4)cc3C=Nc3nc(-c4ccc(Cl)cc4)cs3)c(C=Nc3nc(-c4ccc(Cl)cc4)cs3)c2)ccc1Br [Compound 6f]"
  category: "satisfied"
- compound: "Cc1cc(N=Nc2ccc([O][Cu][O]c3ccc(N=Nc4ccc(Br)c(C)c4)cc3C=Nc3nc(-c4ccc(Cl)cc4)cs3)c(C=Nc3nc(-c4ccc(Cl)cc4)cs3)c2)ccc1Br [Compound 6e]"
  category: "satisfied"

Attention now shifts to the item below.
Challenge: Entry Cc1cc(N=Nc2ccc(O)c(C=Nc3nc(-c4ccc(Cl)cc4)cs3)c2)ccc1Br [5b(Lig)] : is its % Inhibition (DPPH) no less than 50%?
Response given: not satisfied

---

- assay.method.text: DPPH radical scavenging assay
- Assay type: biochemical
- condition.info: Conc. 10 μg/mL; mean ± S.D., n = 3
reported.metric: % Inhibition (DPPH) (%)
Enter your answer as a number in %; do not include the unit.

Record excerpt, results attached:
- molecule: "Cc1cc(N=Nc2ccc([O][Co][O]c3ccc(N=Nc4ccc(Br)c(C)c4)cc3C=Nc3nc(-c4ccc(Cl)cc4)cs3)c(C=Nc3nc(-c4ccc(Cl)cc4)cs3)c2)ccc1Br"
  reported.metric: "% Inhibition (DPPH)"
  unit.string: "%"
  result.value: 36.53
- molecule: "Cc1cc(N=Nc2ccc(O)c(C=Nc3nc(-c4ccc(Cl)cc4)cs3)c2)ccc1Br"
  reported.metric: "% Inhibition (DPPH)"
  unit.string: "%"
  result.value: 19.26
- molecule: "Cc1cc(C(C)(C)C)c(O)c(C(C)(C)C)c1 [BHT, butylated hydroxy toluene, reference compound]"
  reported.metric: "% Inhibition (DPPH)"
  unit.string: "%"
  result.value: 32.32
- molecule: "Cc1cc(N=Nc2ccc([O][Cu][O]c3ccc(N=Nc4ccc(Br)c(C)c4)cc3C=Nc3nc(-c4ccccc4)cs3)c(C=Nc3nc(-c4ccccc4)cs3)c2)ccc1Br"
  reported.metric: "% Inhibition (DPPH)"
  unit.string: "%"
  result.value: 28.43
- molecule: "Cc1cc(N=Nc2ccc(O)c(C=O)c2)ccc1Br"
  reported.metric: "% Inhibition (DPPH)"
  unit.string: "%"
  result.value: 17.96

Now look at this entry.
Challenge: Consider the molecule "Cc1cc(N=Nc2ccc([O][Ni][O]c3ccc(N=Nc4ccc(Br)c(C)c4)cc3C=Nc3nc(-c4ccc(Cl)cc4)cs3)c(C=Nc3nc(-c4ccc(Cl)cc4)cs3)c2)ccc1Br" . State its measured % Inhibition (DPPH).
Response given: 39.73

---

Consider the following molecules and their measured Minimum inhibitory concentration (MIC), K. pneumoniae readings.
- System: Klebsiella pneumoniae (MTCC 109)
- assay.method.text: Minimum inhibitory concentration
- Type: cell-based
- condition.info: 31.25–500 µg/mL tested, 37 °C, 18–24 h
Response body: numeric value in µg/mL, unit text excluded.

- molecule: "Cc1cc(N=Nc2ccc([O][Co][O]c3ccc(N=Nc4ccc(Br)c(C)c4)cc3C=Nc3nc(-c4ccc(Cl)cc4)cs3)c(C=Nc3nc(-c4ccc(Cl)cc4)cs3)c2)ccc1Br [Compound 6d]"
  unit.string: "µg/mL"
  result.value: 31.25
- molecule: "Cc1cc(N=Nc2ccc([O][Cu][O]c3ccc(N=Nc4ccc(Br)c(C)c4)cc3C=Nc3nc(-c4ccc(Cl)cc4)cs3)c(C=Nc3nc(-c4ccc(Cl)cc4)cs3)c2)ccc1Br [Compound 6e]"
  unit.string: "µg/mL"
  result.value: 31.25
- molecule: "Cc1cc(N=Nc2ccc([O][Cu][O]c3ccc(N=Nc4ccc(Br)c(C)c4)cc3C=Nc3nc(-c4ccccc4)cs3)c(C=Nc3nc(-c4ccccc4)cs3)c2)ccc1Br [Compound 6b]"
  unit.string: "µg/mL"
  result.value: 31.25
- molecule: "Cc1cc(N=Nc2ccc([O][Ni][O]c3ccc(N=Nc4ccc(Br)c(C)c4)cc3C=Nc3nc(-c4ccccc4)cs3)c(C=Nc3nc(-c4ccccc4)cs3)c2)ccc1Br [Compound 6c]"
  unit.string: "µg/mL"
  result.value: 62.5

Challenge: Write down Minimum inhibitory concentration (MIC), K. pneumoniae measured for item Cc1cc(N=Nc2ccc([O][Ni][O]c3ccc(N=Nc4ccc(Br)c(C)c4)cc3C=Nc3nc(-c4ccc(Cl)cc4)cs3)c(C=Nc3nc(-c4ccc(Cl)cc4)cs3)c2)ccc1Br [Compound 6f]
Response given: 31.25

meta.source: paper PMC6694902
